So I've got a bunch of compounds here, and I need their Base Solubility in acid soln. values.
# Method: Solubility of the base 2,4-diamino-5-methyl-6-[(3,4,5-trimethoxyanilino)methyl]quinazoline in aqueous acids (shake-out)
# Type: physicochemical
# Condition: Table I; 0.1 M acid per method (head: 1 M soln.), 0.05 M base, shaken 4-12 hours, UV 321 nm
Answer in mg base/ml, number only, no unit symbol.

Lookup: Look up Base Solubility in acid soln.: COc1cc(NCc2ccc3nc(N)nc(N)c3c2C)cc(OC)c1OC [Galacturonic]
Found: 25.1

Lookup: Look up Base Solubility in acid soln.: COc1cc(NCc2ccc3nc(N)nc(N)c3c2C)cc(OC)c1OC [d-Tartaric]
Found: 1.57

Lookup: Look up Base Solubility in acid soln.: COc1cc(NCc2ccc3nc(N)nc(N)c3c2C)cc(OC)c1OC [N--(Morpholine)ethane-2-sulfonic]
Found: 11.2

Lookup: Look up Base Solubility in acid soln.: COc1cc(NCc2ccc3nc(N)nc(N)c3c2C)cc(OC)c1OC [Glycolic]
Found: 4.13

Lookup: Look up Base Solubility in acid soln.: COc1cc(NCc2ccc3nc(N)nc(N)c3c2C)cc(OC)c1OC [p-Toluene sulfonic]
Found: 2.74

Lookup: Look up Base Solubility in acid soln.: COc1cc(NCc2ccc3nc(N)nc(N)c3c2C)cc(OC)c1OC [Methane sulfonic]
Found: 9.83

###

# Method: Solubility of prepared 2,4-diamino-5-methyl-6-[(3,4,5-trimethoxyanilino)methyl]quinazoline salts in water
# Format: physicochemical
# Condition: Table II, Method A: saturated 2.0 ml H2O overnight, filtrate diluted with methanol; 1440 min
Counter-ions that a name gives are not always drawn.
So I've got a bunch of molecules here, and I need their log10 Solubility in water values.
Reminder: these figures are log10 of reported Solubility in water, in mg base/ml before transformation.

Lookup: Look up log10 Solubility in water: COc1cc(NCc2ccc3nc(N)nc(N)c3c2C)cc(OC)c1OC [Acetate]
Found: 0.24

Lookup: Look up log10 Solubility in water: COc1cc(NCc2ccc3nc(N)nc(N)c3c2C)cc(OC)c1OC [Lactate]
Found: 0.64

Lookup: Look up log10 Solubility in water: COc1cc(NCc2ccc3nc(N)nc(N)c3c2C)cc(OC)c1OC [Hydrochloride]
Found: 0.51

Lookup: Look up log10 Solubility in water: COc1cc(NCc2ccc3nc(N)nc(N)c3c2C)cc(OC)c1OC [Free base]
Found: -0.70

Lookup: Look up log10 Solubility in water: COc1cc(NCc2ccc3nc(N)nc(N)c3c2C)cc(OC)c1OC [Isethionate]
Found: 1.38
